# assay summary: in vitro
# particulars: rat, gh3-tre-luc cells, AC50 (uM) modified / 1000, Tox21_110001=Tox21_201048; viability, 1 nM T3 present, 24 h
readout name: CC50 at 24 h

{"compound string": "Cc1c[nH]cn1", "reported result": "> 90 µM"}

* * *

# assay summary: in vitro
# particulars: rat, gh3-tre-luc cells, AC50 (uM) modified / 1000, Tox21_110001=Tox21_302358; viability, 1 nM T3 present, 24 h

{"compound": "CN(C)N [1,1-Dimethylhydrazine]", "CC50 at 24 h": "> 90 µM"}

* * *

In this section, each of the compounds is paired with its reported CC50 at 24 h.
# assay summary: in vitro
# particulars: rat, gh3-tre-luc cells, AC50 (uM) modified / 1000
Structures can show the parent of a compound that is named as a salt.

{"compound": "CN[C@@H]1[C@@H](O)[C@@H](O[C@@H]2[C@@H](O)[C@H](O[C@H]3O[C@H](CN)[C@@H](O)[C@H](O)[C@H]3O)[C@@H](N)C[C@H]2NC(=O)[C@@H](O)CN)OC[C@]1(C)O [Isepamicin sulfate]", "CC50 at 24 h": "> 50 µM"}
{"compound": "C=CCN(C1=NCCN1)c1c(Cl)cccc1Cl", "CC50 at 24 h": "> 50 µM"}
{"compound": "CC1(C)C(/C=C/C=C/C=C/C=C2\\N(CCCCS(=O)(=O)O)c3ccc4ccccc4c3C2(C)C)=[N+](CCCCS(=O)(=O)[O-])c2ccc3ccccc3c21", "CC50 at 24 h": "19.5 µM"}
{"compound": "Cc1nc(Nc2ncc(C(=O)Nc3c(C)cccc3Cl)s2)cc(N2CCN(CCO)CC2)n1", "CC50 at 24 h": "15.8 µM"}
{"compound": "O=C(O)[C@@H]1C[C@H](CP(=O)(O)O)CCN1 (racemic)", "CC50 at 24 h": "> 50 µM"}
{"compound": "Cc1cc(NS(=O)(=O)c2ccc(N)cc2)nc(C)n1", "CC50 at 24 h": "> 50 µM"}
{"compound": "CC(=O)N[C@H]1[C@H]([C@H](O)[C@H](O)CO)OC(C(=O)O)=C[C@@H]1N=C(N)N", "CC50 at 24 h": "> 50 µM"}
